Hello, the source for this data is patent US20090298820A1, in case you need it.

These records show log10(IC50) for UniProtKB P48736.
Sequence (P48736 whole entry, species assumed): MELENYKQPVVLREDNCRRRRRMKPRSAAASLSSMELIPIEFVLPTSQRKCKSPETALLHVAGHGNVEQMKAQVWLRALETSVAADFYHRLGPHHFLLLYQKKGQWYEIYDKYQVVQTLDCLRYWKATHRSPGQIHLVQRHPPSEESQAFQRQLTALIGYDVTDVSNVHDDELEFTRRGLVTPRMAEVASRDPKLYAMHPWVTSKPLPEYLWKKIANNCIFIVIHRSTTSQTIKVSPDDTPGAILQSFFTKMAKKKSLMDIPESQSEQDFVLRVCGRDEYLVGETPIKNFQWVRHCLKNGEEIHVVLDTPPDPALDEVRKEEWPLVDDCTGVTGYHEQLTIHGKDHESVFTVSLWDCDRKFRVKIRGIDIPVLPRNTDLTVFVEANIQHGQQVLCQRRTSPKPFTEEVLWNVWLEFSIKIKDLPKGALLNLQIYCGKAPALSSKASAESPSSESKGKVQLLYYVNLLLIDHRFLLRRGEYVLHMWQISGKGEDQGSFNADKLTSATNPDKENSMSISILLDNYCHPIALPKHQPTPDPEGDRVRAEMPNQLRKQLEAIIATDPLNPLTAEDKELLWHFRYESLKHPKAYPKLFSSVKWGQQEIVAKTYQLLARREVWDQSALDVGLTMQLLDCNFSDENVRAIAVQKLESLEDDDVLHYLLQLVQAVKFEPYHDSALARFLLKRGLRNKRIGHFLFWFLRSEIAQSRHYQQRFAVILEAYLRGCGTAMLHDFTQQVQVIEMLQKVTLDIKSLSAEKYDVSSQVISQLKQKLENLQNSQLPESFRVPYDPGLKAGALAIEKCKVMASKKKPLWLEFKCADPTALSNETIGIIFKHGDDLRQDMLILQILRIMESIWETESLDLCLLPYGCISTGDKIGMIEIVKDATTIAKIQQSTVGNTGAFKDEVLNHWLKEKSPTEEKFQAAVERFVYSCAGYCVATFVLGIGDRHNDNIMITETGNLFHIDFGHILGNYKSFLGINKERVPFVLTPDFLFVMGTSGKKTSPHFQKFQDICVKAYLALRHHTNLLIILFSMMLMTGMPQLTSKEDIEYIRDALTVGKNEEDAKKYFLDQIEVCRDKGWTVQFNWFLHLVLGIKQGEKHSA
Transform log10 | Measure IC50 | Unit nM

Cn1cc(/C=C2\Oc3ccc(NC(=O)Nc4ccncc4)cc3C2=O)c2c(N3CC4CCC(C3)O4)ccnc21: 2.40

// for each compound below, give its log10(IC50)
1. CN(Cc1ccncc1)C(=O)C1CCN(c2ccnc3c2c(/C=C2\Oc4ccc(NC(=O)Nc5cccnc5)cc4C2=O)cn3C)CC1
2. Cn1cc(/C=C2\Oc3cccc(O)c3C2=O)c2c(-c3cccc(C(=O)N4CCCC4)c3)ccnc21

## Result
1: 3.38; 2: 2.23

---

Provide the recorded melting point for the entries that follow.

Sample records with melting point:
Cn1cc(/C=C2\Oc3cccc(O)c3C2=O)c2c(N3CCC(C(=O)N4C5CCCC4COC5)CC3)ccnc21 [Compound 312]: 210 to 218 °C
Cn1cc(/C=C2\Oc3ccc(NC(=O)Nc4cccnc4)cc3C2=O)c2c(N3CCC(C(=O)NCc4cccnc4)CC3)ccnc21 [Compound 270]: 187 to 194 °C

// for each compound below, give its melting point
1. CN(Cc1ccncc1)C(=O)C1CCN(c2ccnc3c2c(/C=C2\Oc4ccc(NC(=O)Nc5cccnc5)cc4C2=O)cn3C)CC1 [Compound 255]
2. CNC(=O)Nc1ccc2c(c1)C(=O)/C(=C/c1cn(C)c3nccc(N4CCC(C(=O)N(C)C)CC4)c13)O2 [Compound 168]
3. Cn1cc(/C=C2\Oc3ccc(NC(=O)Nc4cccnc4)cc3C2=O)c2c(N3CCC(C(=O)Nc4cccnc4)CC3)ccnc21 [Compound 262]
4. CN(C)C(=O)c1ccc(-c2ccnc3c2c(/C=C2\Oc4cccc(O)c4C2=O)cn3C)cc1 [Compound 111]

## Result
1: 125 to 135 °C; 2: 203 °C; 3: 180 to 190 °C (dec.); 4: 212 to 218 °C

// for each compound below, give its melting point
1. Cn1cc(/C=C2\Oc3cccc(O)c3C2=O)c2c(-c3cccc(S(C)(=O)=O)c3)ccnc21 [Compound 75]
2. CN(C)Cc1ccc(-c2ccnc3c2c(/C=C2\Oc4cccc(O)c4C2=O)cn3C)cc1 [Compound 113]
3. CN(Cc1cccnc1)C(=O)C1CCN(c2ccnc3c2c(/C=C2\Oc4ccc(NC(=O)Nc5cccnc5)cc4C2=O)cn3C)CC1 [Compound 256]
4. Cn1cc(/C=C2\Oc3cc(O)ccc3C2=O)c2c(-c3ccccc3)ccnc21 [Compound 30]
5. CN1CC2CC1CN2c1ccnc2c1c(/C=C1\Oc3cccc(O)c3C1=O)cn2C (centres unmarked) [Compound 153]
6. CNC(=O)Nc1ccc2c(c1)C(=O)/C(=C/c1cn(C)c3nccc(-c4ccccc4)c13)O2 [Compound 38]

## Result
1. 310 to 318 °C
2. 340 to 350 °C
3. 195 to 205 °C
4. 314 to 316 °C (dec.)
5. 220 °C (dec.)
6. 265 to 270 °C (dec.)

// for each compound below, give its melting point
1. CN(C(=O)C1CCN(c2ccnc3c2c(/C=C2\Oc4ccc(NC(=O)Nc5cccnc5)cc4C2=O)cn3C)CC1)c1cccnc1 [Compound 269]
2. Cn1cc(/C=C2\Oc3cccc(O)c3C2=O)c2c(-c3ccc(C(=O)N4CC5CCC(C4)O5)cc3)ccnc21 [Compound 144]
3. COCC1CN(C(=O)C2CCN(c3ccnc4c3c(/C=C3\Oc5cccc(O)c5C3=O)cn4C)CC2)CCO1 (centres unmarked) [Compound 311]
4. CN1CCN(C2CCN(c3ccnc4c3c(/C=C3\Oc5cccc(O)c5C3=O)cn4C)CC2)CC1 [Compound 129]

## Result
["184 to 194 °C", "296 to 298 °C", "112 to 115 °C", "239 to 242 °C"]

---

Provide the recorded pIC50 for the entries that follow.
- Target entity: mTOR (Homo sapiens, UniProt P42345)
- Protocol notes: mTOR enzyme assay (DELFIA format, His6-S6K substrate)
- Format: biochemical
- Conditions used: read-out: mTOR Kinase Median IC50
Numbers only, as −log10 of the molar value.

Sample records with pIC50:
C[C@H]1COCCN1c1ccnc2c1c(/C=C1\Oc3ccc(NC(=O)Nc4cccnc4)cc3C1=O)cn2C: 6.89
Cn1cc(/C=C2\Oc3ccc(NC(=O)Nc4cccnc4)cc3C2=O)c2c(N3CC4CC3CO4)ccnc21 (stereo not drawn): 7.57
COCC1CN(C(=O)C2CCN(c3ccnc4c3c(/C=C3\Oc5ccc(NC(=O)Nc6cccnc6)cc5C3=O)cn4C)CC2)CCO1 (stereo not drawn): 7.43
Cn1cc(/C=C2\Oc3cccc(O)c3C2=O)c2c(-c3cccc(O)c3)ccnc21: 7.89

// for each compound below, give its pIC50
1. Cn1cc(/C=C2\Oc3cccc(O)c3C2=O)c2c(N3CCC(N)CC3)ccnc21
2. CNC(=O)c1ccc(-c2ccnc3c2c(/C=C2\Oc4cccc(O)c4C2=O)cn3C)cc1
3. COc1ccc(-c2ccnc3c2c(/C=C2\Oc4cc(O)cc(O)c4C2=O)cn3C)cc1S(=O)(=O)N1CCCC1

## Result
1: 7.72; 2: 8.77; 3: 9.30

// for each compound below, give its pIC50
1. CNC(=O)Nc1cccc2c1C(=O)/C(=C/c1cn(C)c3nccc(-c4ccccc4)c13)O2
2. Cn1cc(/C=C2\Oc3cc(O)cc(O)c3C2=O)c2c(-c3ccc(Cl)nc3)ccnc21
3. Cn1cc(/C=C2\Oc3ccc(NC(=O)Nc4ccc(F)nc4)cc3C2=O)c2c(N3CC4CCC(C3)O4)ccnc21
4. Cn1cc(C=C2Oc3ccc(NC(=O)Nc4cccnc4)cc3C2=O)c2c(N3CCC(C(=O)NCC(N)=O)CC3)ccnc21
5. CN(Cc1cccnc1)C(=O)C1CCN(c2ccnc3c2c(/C=C2\Oc4ccc(NC(=O)Nc5cccnc5)cc4C2=O)cn3C)CC1
6. Cn1cc(/C=C2\Oc3ccc(NC(=O)Nc4ccc(CN5CCCCC5)cc4)cc3C2=O)c2c(N3CC4CCC(C3)O4)ccnc21

## Result
5.46
8.82
7.59
8.40
7.96
7.64

// for each compound below, give its pIC50
1. Cn1cc(/C=C2\Oc3cccc(O)c3C2=O)c2c(-c3cccc(C(=O)Nc4ccccc4)c3)ccnc21
2. CNC(=O)Nc1ccc2c(c1)C(=O)/C(=C/c1cn(C)c3nccc(N4CC5CCC4CO5)c13)O2 (stereo not drawn)

## Result
1. 8.11
2. 7.96

---

- Target entity: mTOR (Homo sapiens)
- Protocol notes: mTOR enzyme assay (DELFIA format, His6-S6K substrate)
- Format: biochemical
- Conditions used: read-out: mTOR Kinase Median IC50
Provide the recorded log10(IC50) for the entries that follow.
Transform log10 | Measure IC50 | Unit nM

CN(C)C(=O)C1CCN(c2ccnc3c2c(/C=C2\Oc4ccc(NC(=O)N5CCOCC5)cc4C2=O)cn3C)CC1: 1.96
Cn1cc(/C=C2\Oc3ccc(NC(=O)Nc4cccnc4)cc3C2=O)c2c(N3CCOCC3)ccnc21: 1.85
Cn1cc(/C=C2\Oc3ccc(NC(=O)Nc4cccnc4)cc3C2=O)c2c(N3CCC(C(=O)NCc4ccncc4)CC3)ccnc21: 0.95
CN(C)C(=O)C1CCN(c2ccnc3c2c(/C=C2\Oc4ccc(NC(=O)NC5CNC5)cc4C2=O)cn3C)CC1: 0.92
CN1CCN(c2ccnc3c2c(/C=C2\Oc4ccc(NC(=O)Nc5cccnc5)cc4C2=O)cn3C)CC1: 1.92

// for each compound below, give its log10(IC50)
1. Cn1cc(C=C2Oc3ccc(NC(=O)Nc4cccnc4)cc3C2=O)c2c(N3CCC(C(=O)N[C@@H]4CCNC4)CC3)ccnc21
2. Cn1cc(/C=C2\Oc3ccc(NC(=O)NC4CCN(C(=O)C(F)(F)F)CC4)cc3C2=O)c2c(N3CC4CCC(C3)O4)ccnc21

## Result
[1.20, 2.03]

---

- Target entity: UniProtKB P48736
Property name: IC50

Sample records with IC50:
CN1CCN(c2ccc(NC(=O)Nc3ccc4c(c3)C(=O)/C(=C/c3cn(C)c5nccc(N6CCC(C(=O)N(C)C)CC6)c35)O4)cc2)CC1: > 10 µM
CC1CC(C)CN(c2ccnc3c2c(/C=C2\Oc4cccc(O)c4C2=O)cn3C)C1 (stereo not drawn): > 10 µM

Shift focus to the following entry.
## Task Return IC50 for the following compound: `CN(C)C(=O)C1CCN(c2ccnc3c2c(/C=C2\Oc4ccc(NC(=O)N5CCOCC5)cc4C2=O)cn3C)CC1`
## Result > 10 µM

---

- Target entity: PI3Kα (Homo sapiens, UniProt P42336)
- Sequence (P42336 whole entry, species assumed): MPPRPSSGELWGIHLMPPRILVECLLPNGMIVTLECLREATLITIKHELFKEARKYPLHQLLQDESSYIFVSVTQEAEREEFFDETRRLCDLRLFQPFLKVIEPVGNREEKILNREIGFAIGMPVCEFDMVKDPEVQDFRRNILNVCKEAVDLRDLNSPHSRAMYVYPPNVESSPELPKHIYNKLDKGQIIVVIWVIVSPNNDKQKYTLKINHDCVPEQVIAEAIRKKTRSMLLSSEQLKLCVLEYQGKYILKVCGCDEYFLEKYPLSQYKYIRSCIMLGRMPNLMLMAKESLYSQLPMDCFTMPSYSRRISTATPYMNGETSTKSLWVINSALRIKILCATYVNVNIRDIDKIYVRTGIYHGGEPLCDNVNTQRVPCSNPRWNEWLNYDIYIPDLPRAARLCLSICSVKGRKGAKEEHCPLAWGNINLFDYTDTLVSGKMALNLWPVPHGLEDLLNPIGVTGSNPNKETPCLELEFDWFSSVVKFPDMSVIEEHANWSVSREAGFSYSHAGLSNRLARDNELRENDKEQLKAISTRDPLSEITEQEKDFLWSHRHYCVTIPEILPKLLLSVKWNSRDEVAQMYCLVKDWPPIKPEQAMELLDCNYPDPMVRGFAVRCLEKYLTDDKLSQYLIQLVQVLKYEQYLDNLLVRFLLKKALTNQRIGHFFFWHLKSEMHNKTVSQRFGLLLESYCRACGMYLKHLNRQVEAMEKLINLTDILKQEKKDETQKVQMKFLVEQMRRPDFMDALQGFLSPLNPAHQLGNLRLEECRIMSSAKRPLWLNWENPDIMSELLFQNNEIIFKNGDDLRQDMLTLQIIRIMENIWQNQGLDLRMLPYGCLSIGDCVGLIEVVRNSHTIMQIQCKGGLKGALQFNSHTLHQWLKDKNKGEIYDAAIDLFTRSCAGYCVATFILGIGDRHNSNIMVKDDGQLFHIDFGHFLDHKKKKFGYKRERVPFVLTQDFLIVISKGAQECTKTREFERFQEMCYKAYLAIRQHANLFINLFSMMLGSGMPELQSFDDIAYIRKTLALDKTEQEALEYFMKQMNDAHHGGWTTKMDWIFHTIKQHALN
- Sequence (P27986 whole entry partner, species assumed): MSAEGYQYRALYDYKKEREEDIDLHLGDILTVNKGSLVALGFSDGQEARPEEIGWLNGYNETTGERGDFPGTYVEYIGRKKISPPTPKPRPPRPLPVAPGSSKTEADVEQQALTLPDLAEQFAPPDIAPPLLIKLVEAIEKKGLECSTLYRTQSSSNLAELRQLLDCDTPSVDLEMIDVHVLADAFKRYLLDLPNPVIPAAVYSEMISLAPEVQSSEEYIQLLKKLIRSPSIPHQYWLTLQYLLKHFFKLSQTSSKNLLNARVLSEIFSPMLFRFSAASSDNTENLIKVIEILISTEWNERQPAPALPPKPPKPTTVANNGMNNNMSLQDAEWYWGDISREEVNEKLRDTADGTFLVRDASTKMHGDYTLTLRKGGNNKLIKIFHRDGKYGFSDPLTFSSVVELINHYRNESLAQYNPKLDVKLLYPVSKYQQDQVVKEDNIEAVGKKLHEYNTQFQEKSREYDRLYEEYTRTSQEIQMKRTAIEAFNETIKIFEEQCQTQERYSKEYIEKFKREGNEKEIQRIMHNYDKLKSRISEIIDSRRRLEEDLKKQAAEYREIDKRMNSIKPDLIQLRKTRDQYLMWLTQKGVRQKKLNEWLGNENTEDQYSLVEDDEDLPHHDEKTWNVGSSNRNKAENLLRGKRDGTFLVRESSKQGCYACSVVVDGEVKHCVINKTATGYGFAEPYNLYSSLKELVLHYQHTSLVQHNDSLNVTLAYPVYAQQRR
Cut-off 0.9 µM on IC50: below means 1.0, at or above means 0.0.

A selection of reference data follows.
Cn1cc(/C=C2\Oc3cc(O)cc(O)c3C2=O)c2c(-c3cccc(Cl)c3)ccnc21: 1.0
Cn1cc(/C=C2\Oc3cccc(O)c3C2=O)c2c(N3C4CCC3COC4)ccnc21: 1.0
CNC(=O)Nc1ccc2c(c1)C(=O)/C(=C/c1cn(C)c3nccc(N4C5CCC4COC5)c13)O2: 1.0
CN1CCN(c2ccc(NC(=O)Nc3ccc4c(c3)C(=O)/C(=C/c3cn(C)c5nccc(N6CCC(C(=O)N(C)C)CC6)c35)O4)cn2)CC1: 0.0
Cn1cc(/C=C2\Oc3cccc(O)c3C2=O)c2c(-c3ccc(C(=O)Nc4ccc(F)cc4)cc3)ccnc21: 1.0

Please look at the following compound next.
## Task Could you please tell me whether IC50 recorded for `CN(C)C(=O)C1CCN(c2ccnc3c2c(/C=C2\Oc4ccc(NC(=O)Nc5ccc(CN6CCCCC6)cc5)cc4C2=O)cn3C)CC1` is less than 0.9 µM?
## Result 1.0
